Data provenance: PubChem BioAssay (NCI)

# TGI annotations
Test system: IGROV1 ovarian
Assay: NCI tumour cell line growth inhibition, 48 h

Known results for molecules:
{"columns": ["STRUCTURE SMILES", "TGI"],
 "data": [
  ["Oc1cc2c(cc1O)-c1[nH]ncc1CC2", "> 100 µM"],
  ["CCn1cnc2c(NC(C)=O)ncnc21", "> 100 µM"]
]}

stdin: What TGI value was documented for this molecule, `Oc1cc2ccccc2cc1-c1n[nH]c(=S)n1-c1ccc(Cl)cc1` ?
stdout: 7.67 µM

====

Test system: RPMI-8226 leukemia
Assay: NCI tumour cell line growth inhibition, 48 h
# TGI annotations
Express your answer in µM, writing the number without its unit.

{"columns": ["MOLECULE", "ENDPOINT LABEL", "MEASUREMENT"],
 "data": [
  ["CC1Cc2cc(O)ccc2C2[C@@H]1C1CC[C@H](O)[C@@]1(C)C[C@@H]2O[N+](=O)[O-] (stereo partly specified)", "TGI", 50.2],
  ["CCC(/C(=N\\Nc1c(Cl)cc(Cl)cc1Cl)c1ccccc1)n1ccnc1C (stereo unspecified)", "TGI", 41]
]}

Proceed to the following item.
stdin: What TGI value was documented for this molecule, CCOC(=O)C1(Cc2ccccc2)Cc2ccccc2C1=O (stereo unspecified) ?
stdout: 60.8

====

System: PC-3 prostate
Experiment: NCI tumour cell line growth inhibition, 48 h
ENDPOINT LABEL: TGI

Known results for compounds:
{"columns": ["COMPOUND", "TGI"],
 "data": [
  ["COc1ccc(-c2nnc(CCCCCCCCc3nnc(-c4ccc(OC)cc4)o3)o2)cc1", "> 100 µM"],
  ["O=c1cccc(C#CC#C/C=C/CO)o1", "11.3 µM"],
  ["COC(Cc1ccccc1)NC(C)=O (stereo unspecified)", "> 100 µM"],
  ["Cc1nc(C)c(N2CCN(C#N)CC2)c(=O)[nH]1", "> 100 µM"],
  ["COC(=O)CCC(=O)c1ccc2c(c1)CC1(C2)Cc2ccc3c(c2C1)CCCC3=O (stereo unspecified)", "> 79.9 µM"]
]}

stdin: Lab request: please report TGI under test system PC-3 prostate for `Cc1cc2[nH]c3c(C#N)c(-c4ccccc4)c(CN4CCOCC4)c(=O)n3c2cc1C`
stdout: > 100 µM

====

System: KM12 colon
Assay: NCI tumour cell line growth inhibition, 48 h
ENDPOINT LABEL: TGI

{"columns": ["COMPOUND", "MEASUREMENT"],
 "data": [
  ["CCN(CC)CCOc1ccc(C(=C2CCCCC2)c2ccc(OCCN(CC)CC)cc2)cc1", "2.57 µM"]
]}

stdin: What TGI value was documented for this compound, `CC(=O)O[C@H]1[C@@H](N2CCN(C)CC2)C[C@H]2[C@@H]3CC=C4C[C@@H](N5CCCC5)CC[C@]4(C)[C@H]3CC[C@@]21C` ?
stdout: > 100 µM

stdin: What TGI value was documented for this compound, N#CC(c1cc(Cl)ncn1)c1nc2ccccc2s1 (configuration not stated) ?
stdout: > 100 µM

stdin: What TGI value was documented for this compound, `NC(N)=Nc1nc2ccccc2[nH]1` ?
stdout: > 150 µg/mL

stdin: What TGI value was documented for this compound, `CC1=NN(C(=O)Cc2ccccc2)C(=O)/C1=C\c1ccco1` ?
stdout: > 100 µM

stdin: What TGI value was documented for this compound, `Cn1c(=S)sc2nc3ccccc3n2c1=S` ?
stdout: 27.4 µM

stdin: What TGI value was documented for this compound, `Cc1nc(C)c(N2CCN(C#N)CC2)c(=O)[nH]1` ?
stdout: > 100 µM
